- target: MAP kinase-activated protein kinase 2 (Homo sapiens);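 note: figures are mean inhibition values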
- reported.conditions: at 0.1 µM
reported.property: inhibition (%)

* COc1cc(Nc2nccc(Nc3ccc4c(C)n[nH]c4c3)n2)cc(OC)c1OC | 0.91
* Clc1ccc(-c2nn3ncccc3c2-c2ccnc(Nc3ccccc3)n2)cc1 | 0.42
* CN1CCC(n2cnc(-c3ccc(F)cc3)c2-c2ccnc(N)n2)CC1 | 0.99
* CC1=C(C(=O)Nc2cc(Cl)c3[nH]ncc3c2)C(c2ccc(C(F)(F)F)cc2)CC(=O)N1 (stereo not given) | 4.51
* COC(=O)Nc1nc2ccc(Oc3ccc(NC(=O)Nc4cccc(Cl)c4)cc3)cc2[nH]1 | -0.07

Numbers sourced from ChEMBL document CHEMBL1961873.
